Where do these numbers come from? They come from patent EP0863891B1.

Target: COX-2 (Homo sapiens)
Sequence (P35354 18-604): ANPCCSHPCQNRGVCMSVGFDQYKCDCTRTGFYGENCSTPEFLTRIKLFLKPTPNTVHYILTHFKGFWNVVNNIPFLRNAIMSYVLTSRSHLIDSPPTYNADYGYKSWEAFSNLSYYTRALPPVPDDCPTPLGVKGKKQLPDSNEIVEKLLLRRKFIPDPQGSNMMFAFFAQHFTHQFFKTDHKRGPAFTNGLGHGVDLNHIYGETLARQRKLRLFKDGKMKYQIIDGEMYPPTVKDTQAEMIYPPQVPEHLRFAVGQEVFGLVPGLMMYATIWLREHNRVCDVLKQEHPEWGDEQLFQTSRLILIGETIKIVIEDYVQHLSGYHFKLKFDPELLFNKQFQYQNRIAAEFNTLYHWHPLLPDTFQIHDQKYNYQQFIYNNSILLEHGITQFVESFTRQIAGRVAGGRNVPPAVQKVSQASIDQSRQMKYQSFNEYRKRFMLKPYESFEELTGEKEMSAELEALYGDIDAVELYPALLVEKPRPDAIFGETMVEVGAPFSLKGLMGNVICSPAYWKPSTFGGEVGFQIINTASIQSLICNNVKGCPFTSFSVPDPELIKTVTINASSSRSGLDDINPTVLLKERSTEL
Test: Human whole blood assay, COX-2 (LPS-induced PGE2 production)
Format: cell-based
Set-up: endogenous in cells; host or cells: fresh heparinized human whole blood from volunteers, induced with LPS
Settings: Table IV; human whole blood, LPS, 24 hours; read-out: COX-2(IC50, µM) HWB
Reported IC50 values for a set of molecules

molecule: CC1(C)OC(=O)C(Oc2ncccc2F)=C1c1ccc(S(C)(=O)=O)cc1
testSystem: COX-2 (Homo sapiens)
measuredProperty: IC50
measuredValue: 0.21 µM

molecule: CC1(C)OC(=O)C(Sc2nccs2)=C1c1ccc(S(C)(=O)=O)cc1
testSystem: COX-2 (Homo sapiens)
measuredProperty: IC50
measuredValue: 23 µM

molecule: C[C@]1(CC(F)(F)F)OC(=O)C(Oc2ccc(Cl)cn2)=C1c1ccc(S(C)(=O)=O)cc1
testSystem: COX-2 (Homo sapiens)
measuredProperty: IC50
measuredValue: < 0.4 µM

molecule: CC1(C(F)(F)F)OC(=O)C(Oc2ccc(F)c(F)c2)=C1c1ccc(S(C)(=O)=O)cc1 (stereo not drawn)
testSystem: COX-2 (Homo sapiens)
measuredProperty: IC50
measuredValue: 2 µM

molecule: C[C@]1(CC(F)(F)F)OC(=O)C(Oc2ccc(Br)cn2)=C1c1ccc(S(C)(=O)=O)cc1
testSystem: COX-2 (Homo sapiens)
measuredProperty: IC50
measuredValue: 0.18 µM

Request the reported IC50 associated with Cc1ccc(OC2=C(c3ccc(S(C)(=O)=O)cc3)C(C)(C)OC2=O)nc1
< 0.41 µM
